- System: Fibroblast
- Assay Info: Multiplex assay against human fibroblast
- Type: toxicity, cell-based
- Test Conditions: 48 h, 1 µM, compound concentration 1 uM, replicate 2
Observation Type: Population Membrane Permeable-Phenotype (%)

| Molecular String | Measurement |
| --- | --- |
| CC[C@H]1OC(=O)[C@H](C)[C@@H](O[C@H]2C[C@@](C)(OC)[C@@H](O)[C@H](C)O2)[C@H](C)[C@@H](O[C@@H]2O[C@H](C)C[C@H](N(C)C)[C@H]2O)[C@@]2(C)CC(C)=C(O2)[C@H](C)[C@@H](O)[C@]1(C)O | 7 |
| O=C(O)c1cc2ccccc2c(Cc2c(O)c(C(=O)O)cc3ccccc23)c1O | 9 |
| N[C@@]1(C(=O)O)CO[C@H]2[C@H](C(=O)O)[C@H]21 | 4 |
| O=C(NCCO)c1cccc(-c2cc(Nc3ccc(OC(F)(F)F)cc3)ncn2)c1 | 6 |
